- measurement_description: in vivo
- details: male, ICR, mouse, ip, 10 mg/kg, AUClast

compound: O=c1c(O)c(-c2cc(O)c(O)c(O)c2)oc2cc(O)cc(O)c12 [myricetin, 3,5,7,3′,4′,5′-hexahydroxyflavone]
AUC(0-t) (ng·h/mL): 1090

* * *

- measurement_description: in vivo
- details: male, ICR, mouse, po, 30 mg/kg, AUCINF_obs
AUC(0-inf): recorded values
measure: AUC(0-inf)

molecule: O=c1c(O)c(-c2cc(O)c(O)c(O)c2)oc2cc(O)cc(O)c12 [myricetin, 3,5,7,3′,4′,5′-hexahydroxyflavone]
assay_result: 8.51 ng·h/mL

molecule: COc1cc(O)c2c(c1)O[C@H](c1cc(O)c(O)c(O)c1)[C@@H](O)C2=O [compound 7, 7-O-methyl dihydromyricetin]
assay_result: 588 ng·h/mL

* * *

- measurement_description: in vivo
- details: male, ICR, mouse, po, 30 mg/kg, AUClast

compound: COc1cc(O)c2c(c1)O[C@H](c1cc(O)c(O)c(O)c1)[C@@H](O)C2=O [compound 7, 7-O-methyl dihydromyricetin]
unit: ng·h/mL
AUC(0-t): 510
--
compound: O=c1c(O)c(-c2cc(O)c(O)c(O)c2)oc2cc(O)cc(O)c12 [myricetin, 3,5,7,3′,4′,5′-hexahydroxyflavone]
unit: ng·h/mL
AUC(0-t): 6.07

* * *

- measurement_description: in vivo
- details: male, ICR, mouse, po, 30 mg/kg
measure: bioavailability (%)

compound: COc1cc(O)c2c(c1)O[C@H](c1cc(O)c(O)c(O)c1)[C@@H](O)C2=O [compound 7, 7-O-methyl dihydromyricetin]
assay_result: 18.1

* * *

- measurement_description: in vivo
- details: male, ICR, mouse, ip, 10 mg/kg, Cmax

molecule: O=c1c(O)c(-c2cc(O)c(O)c(O)c2)oc2cc(O)cc(O)c12 [myricetin, 3,5,7,3′,4′,5′-hexahydroxyflavone]
Cmax: 1800 ng/mL

* * *

- measurement_description: in vivo
- details: male, ICR, mouse, po, 30 mg/kg, Concentration in mouse plasma, Mean
measure: concentration at 2 h (ng/mL)

compound: COc1cc(O)c2c(c1)O[C@H](c1cc(O)c(O)c(O)c1)[C@@H](O)C2=O [compound 7, 7-O-methyl dihydromyricetin]
unit: ng/mL
assay_result: 61.2

* * *

- measurement_description: in vivo
- details: male, ICR, mouse, po, 30 mg/kg, Concentration in mouse plasma
measure: concentration at 0.5 h (ng/mL)

compound: COc1cc(O)c2c(c1)O[C@H](c1cc(O)c(O)c(O)c1)[C@@H](O)C2=O [compound 7, 7-O-methyl dihydromyricetin]
measure: concentration at 0.5 h
unit: ng/mL
assay_result: 200

* * *

- measurement_description: in vivo
- details: male, ICR, mouse, po, 30 mg/kg, Cmax

compound: O=c1c(O)c(-c2cc(O)c(O)c(O)c2)oc2cc(O)cc(O)c12 [myricetin, 3,5,7,3′,4′,5′-hexahydroxyflavone]
unit: ng/mL
Cmax: 8.59

* * *

- measurement_description: PK study in mice
- details: male, ICR, mouse, plasma, po, 30 mg/kg, T1/2, mice, p.o. 30 mg/kg
measure: half-life (h)

molecule: COc1cc(O)c2c(c1)O[C@H](c1cc(O)c(O)c(O)c1)[C@@H](O)C2=O [compound 7, 7-O-methyl dihydromyricetin]
unit: h
assay_result: 1.74
